methodSummary: NCI Yeast Anticancer Drug Screen. Data for the cln2 rad14 strain (AID 165);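 further: 0% = growth equal to vehicle treated cultures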
experimentalConditions: S. cerevisiae cln2 rad14 strain, at 50.0 µM, hits give high values
Compounds without any hit were thinned out: in the full panel of roughly 79,000, 15% have a hit. Where a SMILES comes first, the peptide text is derived from it. [ ]: non-standard residue; d: D form. The star is where a group is joined. ξ: configuration not given here. ξPhe(4-NO2) = NC(Cc1ccc([N+](=O)[O-])cc1)C(=O)O; Boc = CC(C)(C)OC(=O)*; OBn = c1ccc(CO*)cc1
Form field: growth inhibition (one value per entry).
measuredParameter: growth inhibition (%)

- Cc1cc(-c2ccccc2)[nH]c1-c1nccc2ccccc12: 24
- NC(=S)N/N=C/C1=C(Cl)c2ccccc2C1: -4.45
- COC(=O)C1(CC(=O)c2ccc(N3CCN(c4ccc(C(=O)CC5(C(=O)OC)NC(=S)NC(=O)C5C#N)cc4)CC3)cc2)NC(=S)NC(=O)C1C#N (stereo unspecified): 3.95
- O=C(c1cccc(F)c1)c1ccccc1Cc1ccccc1: 19.4
- CCOC(=O)c1[nH]cnc1N: -46.1
- C=CCSc1nc2c(=O)n(C)c(=O)n(C)c2n1C: -27.3
- N#CC(C(=N/NC(N)=S)/C(=N/NC(N)=S)C(C#N)c1ccc(Cl)cc1)c1ccc(Cl)cc1 (stereo unspecified): -6.85
- Nc1nc(Cl)c2ncn(C3OC(CO)C(O)C3O)c2n1 (stereo unspecified): -34.5
- O=C(CN1CCCC1)Nc1ccc2c(c1)C1Oc3ccccc3CC1CO2 (stereo unspecified): 11.6
- COc1ccc(OC)c(NC(=O)NN(C)C)c1: 7.95
- O=S(=O)(O)c1ccc(Nc2ccnc3cc(Cl)ccc23)cc1: -3.9
- CCN(CC)c1ccc(N=Nc2ccc([N+](=O)[O-])cc2OC(=O)/C=C/c2ccccc2)c(OC(=O)/C=C/c2ccccc2)c1: 5.6
- COC(=O)N/N=C(/c1nc2ccc([N+](=O)[O-])cc2[nH]c1=O)C(O)c1ccc(OC)c(OC)c1 (stereo unspecified): 17.7
- CCCCCCCCCCCCCCCCn1/c(=N\N=O)sc2ccccc21: 11.6
- COc1ccc(C(=O)NNC(=O)c2ccc3ccccc3c2)cc1: 9.95
- O=c1[nH]cnc2c1ncn2C1CCC(CO)O1 (stereo unspecified): -0.1
- O=C(Nc1ccc(Cl)c(Cl)c1)Oc1ccccc1Cl: -36
- CC1CC2=Cc3c(O)c(O)cc(O)c3C(=O)C2=CO1 (stereo unspecified): -11.6
- CCCCCCCCCC(=O)N/N=C/c1c[nH]c2ccccc12: -8.75
- CCOc1ccccc1NC(=O)c1c(Br)c(Br)c(Br)c(Br)c1C(=O)O: -4.15
- COC(=O)CC1C(OC)OC23CCC1C2(C)CCC1C3CCC2CC(OC3CCCCO3)CCC21C (stereo unspecified): 12.6
- CC(C)(C)OC(=O)NC(Cc1ccc([N+](=O)[O-])cc1)C(=O)NCC(=O)OCc1ccccc1 (stereo unspecified) (Boc-[ξPhe(4-NO2)]-Gly-OBn): 32.5
- CC(=O)[C@H]1CC[C@H]2[C@@H]3CC=C4C=CCC[C@]4(C)[C@H]3CC[C@]12C: -58.5
- O=C(c1ccccc1)c1cc(Cl)ccc1NCC(O)COc1ccc(Cl)cc1 (stereo unspecified): -12.6
- CSc1cc(=O)n(C2OC(CO)C(O)C2O)c(=O)[nH]1 (stereo unspecified): -14.9
- CCC(C(C)=O)C(C)C (stereo unspecified): 7.2
- COc1ccc2nc(C3CCCCC3C(=O)O)cc(C)c2c1 (stereo unspecified): -27.1
- CCC[N+]1=C/c2ccccc2OC(=O)/C=C\1[O-]: -8.95
- Cc1cc(Br)ncc1[N+](=O)[O-]: -6
- CC1=NNC(=O)CC1C(O)c1ccc(F)cc1 (stereo unspecified): -2.35
- c1ccc(C2Nc3ccccc3C3OCCCC23)cc1 (stereo unspecified): -9.4
- CC(CNC(=O)c1ccccc1)(CNC(=O)c1ccccc1)[N+](=O)[O-]: 6.75
- COc1ccc(/C(C)=N/NC(=O)CC(=O)N(C(=O)c2ccccc2)c2ccc(C)cc2)cc1: 8.15
- CCc1cccc(CC)c1NC(=O)/C=C/C(=O)O: -46.6
- CC(=O)NC(CCCc1ccccc1)C(=O)O (stereo unspecified): -23.1
- Cc1cc2c(=O)cc(-c3ccc(C(=O)O)cc3)oc2c(C(N)=O)c1C: 23.4
- NN(c1ccccc1)c1ccccc1: 25.9
- COc1ccc2nccc(N)c2c1: 11.5
- CC(N)(CCSCP(=O)(O)O)C(=O)O (stereo unspecified): -26.9
- O=C1NC(N2CCCCC2)=N/C1=C\c1ccc(Cl)cc1: 7.55
- O=C(O)c1[nH]c2c(=O)[nH]c(=O)[nH]c2c1Br: -4.35
- O=[N+]([O-])c1ccc(-c2nnc(C34CC5CC(CC(C5)C3)C4)o2)cc1: -5.9
- CCOc1ccc(NC(=S)NC=C(C(N)=O)C(N)=O)cc1: 19.2
- CCOC=C(C(=O)OCC)C(=O)OCC: -1
- CC(=O)Nc1cc(-c2ccccc2)cc(-c2ccccc2)c1: 1.5
- CN(C)Cc1onc(-c2c(Cl)cccc2Cl)c1C(=O)O: 6.05
